The origin of these recorded values is patent US9309242B2.

# target or system: Ba/F3-FGFR3-transfected cells (Homo sapiens, UniProt P22607)
# Construct: BAF3-FGFR3 (MIN IL3) pIC50; other: minus IL3
# Sequence (P22607 whole entry, change not shown): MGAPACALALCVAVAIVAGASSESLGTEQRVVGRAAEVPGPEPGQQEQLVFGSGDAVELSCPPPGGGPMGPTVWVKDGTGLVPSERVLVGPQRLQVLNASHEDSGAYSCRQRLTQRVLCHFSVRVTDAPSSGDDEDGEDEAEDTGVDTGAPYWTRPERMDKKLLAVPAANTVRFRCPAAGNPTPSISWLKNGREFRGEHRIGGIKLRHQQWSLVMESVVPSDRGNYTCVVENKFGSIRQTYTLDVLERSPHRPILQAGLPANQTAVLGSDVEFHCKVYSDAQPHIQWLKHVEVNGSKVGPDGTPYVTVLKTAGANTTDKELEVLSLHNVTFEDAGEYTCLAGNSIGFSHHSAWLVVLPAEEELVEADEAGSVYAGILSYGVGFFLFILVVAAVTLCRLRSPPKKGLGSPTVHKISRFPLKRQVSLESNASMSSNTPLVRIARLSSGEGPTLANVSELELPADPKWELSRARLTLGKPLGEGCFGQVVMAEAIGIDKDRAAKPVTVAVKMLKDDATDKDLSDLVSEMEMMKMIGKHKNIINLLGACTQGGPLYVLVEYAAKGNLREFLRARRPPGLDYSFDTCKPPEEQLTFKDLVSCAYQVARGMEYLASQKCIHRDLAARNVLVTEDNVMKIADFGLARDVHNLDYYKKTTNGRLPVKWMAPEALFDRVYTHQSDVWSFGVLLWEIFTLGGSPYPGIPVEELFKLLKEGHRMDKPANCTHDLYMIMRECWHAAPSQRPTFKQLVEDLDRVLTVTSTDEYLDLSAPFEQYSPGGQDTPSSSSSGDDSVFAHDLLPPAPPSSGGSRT
# test name: Ba/F3-FGFR3 (minus IL3) cellular proliferation assay, Alamar Blue
# Format: cell-based
Exercise: state measured BAF3-FGFR3 (MIN IL3) pIC50 for each of the compounds provided.
Give bare numbers.

INSERT INTO measurements (compound, target_or_system, numeric_result) VALUES
  ('COc1cc(OC)c(F)c(N(CC(O)COC(C)C)c2ccc3ncc(-c4cnn(C)c4)nc3n2)c1 (single isomer, unassigned) [Compound 78]', 'Ba/F3-FGFR3-transfected cells (Homo sapiens, UniProt P22607)', 7.70);

I would be grateful if you could provide BAF3-FGFR3 (MIN IL3) pIC50 for each of the following entries.
1. COc1cc(OC)cc(N(CC2CCC(=O)N2)c2ccc3ncc(-c4cnn(C)c4)nc3n2)c1 (centres unmarked) [Compound 54]
2. COc1cc(OC)cc(N(CCNC2COC2)c2ccc3ncc(-c4cnn(C)c4)nc3n2)c1
3. COc1cc(OC)c(F)c(N(c2ccc3ncc(-c4cnn(C)c4)nc3n2)C(CO)COC(C)C)c1 (single isomer, unassigned)

Reply |
1. 6.83
2. 7.06
3. 5.64
